meta.source: the METLIN SMRT retention time set (Domingo-Almenara et al. 2019)

# test protocol: gradient 5% acetonitrile 3 min, to 50% in 2 min, to 85% in 15 min, held 3 min, 100 µL/min
# setup conditions: column: Zorbax Extend-C18 2.1 x 50 mm; eluents: water / acetonitrile, 0.1% formic acid
measured quantity: RP-LC retention time (s)

• CN(CCCNC(=O)c1ccc2c(c1)NC(=O)C1CCCCN21)C1CCCCC1 (stereo not given) = 623
• CCc1ccc(CNC(=O)C2CCCN(c3ccc(=O)n(-c4ccc(OC)cc4)n3)C2)cc1 (stereo not given) = 871
• O=C(NCCc1ccccc1)NCc1cccn1Cc1ccc(F)cc1 = 965
• COc1ccc(Cl)cc1NC(=O)c1cnc(N2CCN(c3ncccn3)CC2)c2ccccc12 = 1090
• CC(C)C(=O)Nc1c(C(=O)N2CCN(c3ccccn3)CC2)oc2ccccc12 = 649
• COc1ccc(C2Cn3cnc(C(=O)N4CCC(C(=O)NC5CC5)CC4)c3CO2)cc1 (stereo not given) = 648
• COc1ccc(-c2ncc3c(n2)CCN(C(=O)c2ccc(C(F)(F)F)cc2)C3)cc1 = 1010
• CN1CCN(c2ccc(-c3nc(-c4cccc(F)c4)no3)cn2)CC1 = 685
• Cn1cccc1C(=O)N1CC(Oc2ccc(-c3nc(-c4ccccc4)no3)cc2)C1 = 1170
• c1ccc(-c2csc(Nc3ccccn3)n2)cc1 = 860

(P) Cc1ccc(C)c(NC(=O)CN2C(=O)C(C(=O)N3CCCC3)Sc3ccccc32)c1 (stereo not given)
(Q) O=C(Nc1ccccc1F)N1CCC2(CCC2N2CCOCC2)CC1 (stereo not given)
Query :: Which entry shows the lesser value of RP-LC retention time here, P or Q ? Please indicate the selected item by its label.
Result :: Q
